// reported Emax for each item listed
measurement target: OX2R (Homo sapiens)
Construct: expressed in transfected cells; host or cells: CHO (Chinese hamster ovary) cells constitutively expressing the OX2R gene and NFAT-luciferase (CHOOX2R)
Sequence (O43614 whole entry): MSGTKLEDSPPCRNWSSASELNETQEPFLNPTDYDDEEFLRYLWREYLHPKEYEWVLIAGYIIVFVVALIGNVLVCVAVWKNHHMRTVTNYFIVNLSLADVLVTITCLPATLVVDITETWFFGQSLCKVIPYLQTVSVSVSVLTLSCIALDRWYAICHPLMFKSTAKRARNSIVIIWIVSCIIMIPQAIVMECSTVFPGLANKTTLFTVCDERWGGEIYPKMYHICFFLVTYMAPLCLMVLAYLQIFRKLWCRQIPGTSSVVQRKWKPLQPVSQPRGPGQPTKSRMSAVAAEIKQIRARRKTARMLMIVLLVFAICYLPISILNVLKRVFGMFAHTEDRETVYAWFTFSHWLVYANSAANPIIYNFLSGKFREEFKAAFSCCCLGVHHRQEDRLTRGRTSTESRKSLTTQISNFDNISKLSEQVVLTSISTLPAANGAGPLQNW
assay name: Evaluation of agonist activity against OX2R (CHOOX2R cells, Fura2AM fluorescence, FDSS3000)
Type: cell-based
condition set: conversion with orexin-A as full agonist (maximum agonist activity 100%)
Enter your answer as a number in %; do not include the unit.

# example entries with known answers
[[record]]
smiles_record = "COc1ccc(-c2cccc(C(=O)N(C)C)c2)cc1S(=O)(=O)Nc1cccc(NCCNC(=O)c2cccc(F)c2)c1"
reported_metric = "Emax"
recorded_result = 84

[[record]]
smiles_record = "COc1ccc(-c2cccc(C(=O)N(C)C)c2)cc1S(=O)(=O)Nc1cccc(NCCNC(=O)c2sccc2Cl)c1"
reported_metric = "Emax"
recorded_result = 99

[[record]]
smiles_record = "COc1ccc(-c2cccc(C(=O)N(C)C)c2)cc1S(=O)(=O)Nc1cccc(NCCNC(=O)c2ccccc2Cl)c1"
reported_metric = "Emax"
recorded_result = 90


Any idea what Emax came out for "COc1ccccc1C(=O)NCCNc1cccc(NS(=O)(=O)c2cc(-c3cccc(C(=O)N(C)C)c3)ccc2OC)c1" on OX2R (Homo sapiens)?
74

Any idea what Emax came out for "COc1ccccc1C(=O)NCCNc1cccc(NS(=O)(=O)c2cc(-c3cccnc3)ccc2OC)c1" on OX2R (Homo sapiens)?
88

Any idea what Emax came out for "CNC(=O)c1cccc(-c2ccc(OC)c(S(=O)(=O)Nc3cccc(NCCNC(=O)c4ccccc4OC)c3)c2)c1" on OX2R (Homo sapiens)?
98

Any idea what Emax came out for "COc1ccccc1C(=O)NCCNc1cccc(NS(=O)(=O)c2cc(-c3cccc(C(=O)N4CCCC4)c3)ccc2OC)c1" on OX2R (Homo sapiens)?
87

Any idea what Emax came out for "COc1ccc(-c2cccc(C(=O)N(C)C)c2)cc1S(=O)(=O)Nc1cccc(NCCNC(=O)c2ncccc2Cl)c1" on OX2R (Homo sapiens)?
87

Any idea what Emax came out for "COc1ccc(-c2cccc(C(=O)N(C)C)c2)cc1S(=O)(=O)Nc1cccc(NCCNC(=O)c2cc(F)ccc2F)c1" on OX2R (Homo sapiens)?
87

Reference for the values: patent US9815787B2
